- Study Target: PI-3 kinase γ (Homo sapiens)
- Experiment Description: PI3Kγ inhibitory activity, PI3-kinase HTRF assay (Millipore)
- Format: biochemical
- Test Conditions: 0.5 h; compound 50 μM; read-out: Inhibition ratio % (50 μM)
Value Type: inhibition at 50 µM (%)

- CNC(=O)Nc1cn2nc(-c3cccc(C(=O)OC)c3)ccc2n1 [Compound I-35]: 77
- CNC(=O)Nc1cn2nc(NC(=O)c3ccccc3)ccc2n1 [Compound I-104]: 55
- CNC(=O)Nc1cn2nc(-c3cccc(Cl)c3)ccc2n1 [Compound I-59]: 52
- CNC(=O)Nc1cn2nc(Cc3ccccc3)ccc2n1 [Compound I-20]: 62
- CCOC(=O)CNC(=O)Nc1cn2nc(-c3cncc(OC)c3)ccc2n1 [Compound I-223]: 86
- COc1cccc(-c2ccc3nc(NC(=O)NCCC(N)=O)cn3n2)c1 [Compound I-279]: 83
- COc1cccc(-c2ccc3nc(NC(=O)c4cccc(N5CCN(C)CC5)c4)cn3n2)c1 [Compound I-203]: 68
- COc1cccc(-c2ccc3nc(NC(=O)c4ccc[nH]4)cn3n2)c1 [Compound I-180]: 96
- CNC(=O)Nc1cn2nc(C(=O)NCc3ccccc3)ccc2n1 [Compound I-15]: 74

* * *

- Study Target: PI-3 kinase γ (Homo sapiens, UniProt P48736)
- Sequence (P48736 whole entry): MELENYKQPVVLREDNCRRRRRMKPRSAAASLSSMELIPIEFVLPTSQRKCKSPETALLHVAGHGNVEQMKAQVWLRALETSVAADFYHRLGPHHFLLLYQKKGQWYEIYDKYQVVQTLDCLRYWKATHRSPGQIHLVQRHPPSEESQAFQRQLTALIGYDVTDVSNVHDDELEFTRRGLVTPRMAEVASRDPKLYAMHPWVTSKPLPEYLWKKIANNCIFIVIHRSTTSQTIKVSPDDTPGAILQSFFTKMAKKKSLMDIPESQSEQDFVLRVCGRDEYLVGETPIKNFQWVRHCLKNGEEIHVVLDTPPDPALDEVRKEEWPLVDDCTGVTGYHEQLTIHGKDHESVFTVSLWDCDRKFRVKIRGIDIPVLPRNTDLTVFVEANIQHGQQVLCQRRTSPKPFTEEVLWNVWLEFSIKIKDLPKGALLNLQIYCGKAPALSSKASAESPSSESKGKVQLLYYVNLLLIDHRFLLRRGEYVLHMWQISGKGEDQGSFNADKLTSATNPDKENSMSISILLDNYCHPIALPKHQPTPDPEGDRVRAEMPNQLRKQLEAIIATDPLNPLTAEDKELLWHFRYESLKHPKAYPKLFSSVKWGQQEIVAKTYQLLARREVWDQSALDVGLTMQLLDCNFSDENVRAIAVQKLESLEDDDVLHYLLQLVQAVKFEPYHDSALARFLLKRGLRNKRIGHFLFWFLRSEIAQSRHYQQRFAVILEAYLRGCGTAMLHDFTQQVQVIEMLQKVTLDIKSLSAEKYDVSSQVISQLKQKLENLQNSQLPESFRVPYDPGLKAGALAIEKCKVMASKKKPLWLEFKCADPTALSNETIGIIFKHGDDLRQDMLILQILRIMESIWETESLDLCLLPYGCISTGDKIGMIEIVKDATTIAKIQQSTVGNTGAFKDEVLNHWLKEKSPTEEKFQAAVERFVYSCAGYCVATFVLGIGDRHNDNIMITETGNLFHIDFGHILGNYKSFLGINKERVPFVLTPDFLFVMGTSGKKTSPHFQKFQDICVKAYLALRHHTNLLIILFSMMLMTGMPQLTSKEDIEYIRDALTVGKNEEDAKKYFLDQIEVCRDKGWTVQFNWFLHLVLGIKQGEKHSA
- Experiment Description: PI3Kγ inhibitory activity, PI3-kinase HTRF assay (Millipore)
- Assay type: biochemical
- Test Conditions: 0.5 h; compound 50 μM; read-out: Inhibition ratio % (50 μM)
- Procedure: (Method) The PI3Kγ inhibitory activity of a compound was evaluated using PI3-kinase HTRF™ assay (Millipore) according to the following procedure. […] 5 μL of a detection reagent comprising a europium-labeled anti-GST antibody, the GST-tagged PH domain, and allophycocyanin-labeled streptavidin was added thereto. After 18 hours, HTRF (excitation wavelength: 330 nm, measuring wavelengths: 620 nm and 665 nm) was measured. […]
Value Type: inhibition at 50 µM (%)

Known results for compounds:
• CNC(=O)Nc1cn2nc(-c3ccc(C(C)=O)cc3)ccc2n1 = 77
• COCCCNC(=O)Nc1cn2nc(-c3cccc(OC)c3)ccc2n1 = 87
• COc1cccc(-c2ccc3nc(NC(=O)c4ccc(OC)c(OC)c4)cn3n2)c1 = 57
• COc1cccc(-c2ccc3nc(NC(=O)c4ccccn4)cn3n2)c1 = 64
• COc1cccc(-c2ccc3nc(NC(=O)NCCN)cn3n2)c1 = 67

1 = COc1cccc(-c2ccc3nc(NC(=O)NCCNC(C)=O)cn3n2)c1
2 = COc1cccc(-c2ccc3nc(Nc4ccc(OCCO)cc4)cn3n2)c1
Between item 1 and item 2 , which reported inhibition at 50 µM is smaller? Your answer should be the label attached to the chosen record.
1

* * *

- Study Target: PI-3 kinase γ (Homo sapiens)
- Experiment Description: PI3Kγ inhibitory activity, PI3-kinase HTRF assay (Millipore)
- Format: biochemical
- Test Conditions: 0.5 h; compound 50 μM; read-out: Inhibition ratio % (50 μM)
Value Type: inhibition at 50 µM (%)

• COc1cccc(-c2ccc3nc(NC(=O)NC4CCCCNC4=O)cn3n2)c1 (stereo not shown) [Compound I-233] = 79
• COc1cccc(-c2ccc3nc(NC(=O)NCCCN4CCCC4=O)cn3n2)c1 [Compound I-235] = 78
• CNC(=O)Nc1cn2nc(C3=CCCC3)ccc2n1 [Compound I-79] = 81
• COc1cccc(-c2ccc3nc(NC(=O)CC(C)(C)C)cn3n2)c1 [Compound I-186] = 78

* * *

- Study Target: PI-3 kinase γ (Homo sapiens, UniProt P48736)
- Experiment Description: PI3Kγ inhibitory activity, PI3-kinase HTRF assay (Millipore)
- Assay type: biochemical
- Test Conditions: 0.5 h; compound 50 μM; read-out: Inhibition ratio % (50 μM)
Value Type: inhibition at 50 µM (%)

• CNC(=O)Nc1cn2nc(Nc3cccc(C(N)=O)c3)ccc2n1 [Compound I-215] = 70
• CNC(=O)Nc1cn2nc(-c3cccc(C(=O)N(C)C)c3)ccc2n1 [Compound I-82] = 79
• CNC(=O)Nc1cn2nc(-c3cccc(O)c3)ccc2n1 [Compound I-152] = 80
• COCCC(=O)Nc1cn2nc(-c3cccc(OC)c3)ccc2n1 [Compound I-213] = 73
• COc1cccc(-c2ccc3nc(NC(=O)NCc4cc(=O)[nH]o4)cn3n2)c1 [Compound I-267] = 61
• COc1cccc(-c2ccc3nc(NC(=O)NCc4cccnc4)cn3n2)c1 [Compound I-239] = 74
• COc1cccc(-c2ccc3nc(NC(=O)c4ccncc4)cn3n2)c1 [Compound I-170] = 60
• CNC(=O)Nc1cn2nc(Nc3cccc(C(=O)OC)c3)ccc2n1 [Compound I-105] = 73
• CNC(=O)Nc1cn2nc(-c3cccc(CO)c3)ccc2n1 [Compound I-69] = 89
• CNC(=O)Nc1cn2nc(-c3ccc(-c4ccccc4)cc3)ccc2n1 [Compound I-68] = 90
• COc1cccc(-c2ccc3nc(NC(=O)Nc4nccs4)cn3n2)c1 [Compound I-232] = 51
• CNC(=O)Nc1cn2nc(-c3ccc(C(N)=O)cc3)ccc2n1 [Compound I-77] = 64

* * *

- Study Target: PI-3 kinase γ (Homo sapiens)
- Experiment Description: PI3Kγ inhibitory activity, PI3-kinase HTRF assay (Millipore)
- Format: biochemical
- Test Conditions: 0.5 h; compound 50 μM; read-out: Inhibition ratio % (50 μM)
Value Type: inhibition at 50 µM (%)

Sample answers from the record:
• COc1cccc(-c2ccc3nc(NC(=O)NCC(=O)OC(C)(C)C)cn3n2)c1 [Compound I-248] = 71
• CNC(=O)Nc1cn2nc(-c3cccc(OC)c3)ccc2n1 [Compound I-36] = 90
• CNC(=O)Nc1cn2nc(-c3cncc(OC)c3)ccc2n1 [Compound I-144] = 83
• COc1cccc(-c2ccc3nc(NC(=O)NC4CCCCC4)cn3n2)c1 [Compound I-109] = 99
• CNC(=O)Nc1cn2nc(-c3cc4ccccc4s3)ccc2n1 [Compound I-58] = 70
• COc1cccc(-c2ccc3nc(NC(C)=O)cn3n2)c1 [Compound I-291] = 74
• COc1cccc(-c2ccc3nc(NC(=O)[C@H]4CCCCN4C(=O)OC(C)(C)C)cn3n2)c1 [Compound I-207] = 64
• CNC(=O)Nc1cn2nc(Nc3cccc(C(=O)O)c3)ccc2n1 [Compound I-162] = 89
• COc1cccc(-c2ccc3nc(NC(=O)CNC(C)=O)cn3n2)c1 [Compound I-175] = 66
• COc1cccc(-c2ccc3nc(NC(=O)Nc4ccon4)cn3n2)c1 [Compound I-243] = 78

1 = CNC(=O)Nc1cn2nc(Nc3ccccc3)ccc2n1 [Compound I-7]
2 = COc1cccc(-c2ccc3nc(Nc4cccc(CO)c4)cn3n2)c1 [Compound I-284]
Of the pair 1 and 2 , name the member with the lesser recorded inhibition at 50 µM. Lab log: write the label of the selected item as the result.
1
(1: 77%, 2: 111%)

P = CNC(=O)Nc1cn2nc(NC(=O)Nc3cccc(C(=O)O)c3)ccc2n1 [Compound I-159]
Q = CNC(=O)Nc1cn2nc(C(=O)NCc3ccc(OC)cc3)ccc2n1 [Compound I-44]
Lab note: check whether P or Q has the lower measured inhibition at 50 µM. Return value: the label identifying the chosen record.
Q

1 = CNC(=O)Nc1cn2nc(C(=O)N3CCC(C(=O)O)CC3)ccc2n1 [Compound I-32]
2 = CNC(=O)Nc1cn2nc(-c3cccc(NC(C)=O)c3)ccc2n1 [Compound I-124]
Which shows the larger inhibition at 50 µM value: 1 or 2 ? Your answer should be the label attached to the chosen record.
2

* * *

- Study Target: PI-3 kinase γ (Homo sapiens)
- Experiment Description: PI3Kγ inhibitory activity, PI3-kinase HTRF assay (Millipore)
- Type: biochemical
- Test Conditions: 0.5 h; compound 50 μM; read-out: Inhibition ratio % (50 μM)
Value Type: inhibition at 50 µM (%)

* CCC(C)C(=O)Nc1cn2nc(-c3cccc(OC)c3)ccc2n1 (centres unmarked) [Compound I-182] | 98
* COc1cccc(-c2ccc3nc(NC(=O)NCc4nn[nH]n4)cn3n2)c1 [Compound I-292] | 74
* CNC(=O)Nc1cn2nc(N3CCCC3=O)ccc2n1 [Compound I-6] | 67

1 = CNC(=O)Nc1cn2nc(-c3cccc([N+](=O)[O-])c3)ccc2n1 [Compound I-128]
2 = CNC(=O)Nc1cn2nc(-c3ccncc3)ccc2n1 [Compound I-147]
Could you determine which record has the numerically smaller inhibition at 50 µM? Candidates: 1 and 2 Give the chosen item's label as your response.
1

* * *

- Study Target: PI-3 kinase γ (Homo sapiens, UniProt P48736)
- Experiment Description: PI3Kγ inhibitory activity, PI3-kinase HTRF assay (Millipore)
- Assay type: biochemical
- Test Conditions: 0.5 h; compound 50 μM; read-out: Inhibition ratio % (50 μM)
Value Type: inhibition at 50 µM (%)

- COc1cccc(-c2ccc3nc(NC(=O)NC4CCCC4)cn3n2)c1: 78
- COc1cccc(-c2ccc3nc(NC(=O)CN(C)C(=O)OC(C)(C)C)cn3n2)c1: 60
- CNC(=O)Nc1cn2nc(NC(=O)c3cccc(Cl)c3)ccc2n1: 60
- CNC(=O)Nc1cn2nc(-c3cccc(COC(C)(C)C)c3)ccc2n1: 70
- COc1cccc(-c2ccc3nc(NC(=O)NCCC(=O)OC(C)(C)C)cn3n2)c1: 85
- COc1cccc(-c2ccc3nc(NC(=O)NCCO)cn3n2)c1: 82
- CNC(=O)Nc1cn2nc(-c3cccc(C#N)c3)ccc2n1: 59
- COc1cccc(-c2ccc3nc(NC(=O)c4ccc5[nH]nnc5c4)cn3n2)c1: 85
- COc1cccc(-c2ccc3nc(NC(=O)NC4CCN(S(=O)(=O)C(C)C)CC4)cn3n2)c1: 53
- COc1cccc(-c2ccc3nc(NC(=O)NCCCN)cn3n2)c1: 81
- CNC(=O)Nc1cn2nc(Oc3ccccc3)ccc2n1: 65
